Values compiled from paper PMC2756588.

# tested on: T1, Lsb1, P53281
# T1 sequence (P53281 45-122, looked up): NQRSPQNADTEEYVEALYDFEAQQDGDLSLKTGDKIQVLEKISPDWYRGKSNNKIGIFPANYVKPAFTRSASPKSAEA
# procedure details: SPOT array
# protocol conditions: median of control spots 388
measurement type: SPOT intensity
Just the number, please.

Example cases with answers are listed next.
# binder, SPOT intensity
records = [
    ("QRIRKIPGIPLMSVG", 78),
    ("FYHRPAPKPPVTKKV", 63),
    ("KRRTSLFPWLHKPGI", 0),
    ("SRSKPLPLTPNSKYN", 0),
    ("MKRSRPSRSIPYTTP", 0),
]

// query Look up SPOT intensity: DDEDVPPQLPTRTKS
// result 58

// query Give the measured SPOT intensity of RRSKSLPTTPGIRSG .
// result 8

// query Record request: SPOT intensity value, item LTRRFPFLFPFDTRM
// result 0
